# System: A-427
# test_description: relative viability (nuclei count vs DMSO), 5 days (fraction); higher = more cells survive
# condition: first compound 0.8 µM
quantity_measured: relative viability
Answer field: number only, no words.

Q. Record Cc1cnc(-c2cnc(NCCNc3ccc(C#N)cn3)nc2-c2ccc(Cl)cc2Cl)[nH]1 + CC(=O)Nc1cccc(-n2c(=O)n(C3CC3)c(=O)c3c(Nc4ccc(I)cc4F)n(C)c(=O)c(C)c32)c1 [Trametinib] (partner 0.02 µM) : what is its relative viability with A-427?
A. 0.827

Q. Can you check Cc1cnc(-c2cnc(NCCNc3ccc(C#N)cn3)nc2-c2ccc(Cl)cc2Cl)[nH]1 + Cc1cc(Nc2cc(N3CCN(C)CC3)nc(Sc3ccc(NC(=O)C4CC4)cc3)n2)n[nH]1 [Tozasertib] (partner 0.1 µM) next?
A. 0.235

====

# System: NCI-H650
# test_description: relative viability (nuclei count vs DMSO), 5 days (fraction); higher = more cells survive
# condition: first compound 0.5 µM
So I've got a bunch of compounds here, and I need their relative viability values.

Q. Report relative viability for COc1cc2nccc(Oc3ccc(NC(=O)Nc4cc(C)on4)c(Cl)c3)c2cc1OC [Tivozanib] + NC(=O)Nc1cc(-c2cccc(F)c2)sc1C(=O)N[C@H]1CCCNC1 [AZD7762] (partner 0.2 µM) please.
A. 0.683

Q. Can you check Nc1ccn([C@@H]2O[C@H](CO)[C@@H](O)[C@@H]2O)c(=O)n1 [Cytarabine] + C[C@@H](Oc1cc(-c2cnn(C3CCNCC3)c2)cnc1N)c1c(Cl)ccc(F)c1Cl [Crizotinib] (partner 1 µM) next?
A. 0.177

Q. Can you check COc1cc2nccc(Oc3ccc(NC(=O)Nc4cc(C)on4)c(Cl)c3)c2cc1OC [Tivozanib] + COc1cccc2cc(-c3nc([C@H]4CC[C@H](C(=O)O)CC4)n4ncnc(N)c34)[nH]c12 [OSI-027] (partner 0.5 µM) next?
A. 0.398

Q. Can you check Nc1ccn([C@@H]2O[C@H](CO)[C@@H](O)[C@@H]2O)c(=O)n1 [Cytarabine] + COc1cccc2cc(-c3nc([C@H]4CC[C@H](C(=O)O)CC4)n4ncnc(N)c34)[nH]c12 [OSI-027] (partner 0.5 µM) next?
A. 0.206

====

# System: NCI-H650
# test_description: relative viability (nuclei count vs DMSO), 5 days (fraction); higher = more cells survive
# condition: first compound 0.5 µM
quantity_measured: relative viability
Answer field: number only, no words.

Q. Record Nc1ccn([C@@H]2O[C@H](CO)[C@@H](O)[C@@H]2O)c(=O)n1 [Cytarabine] + O=C(CCCCCCC(=O)Nc1ccccc1)NO [Vorinostat] (partner 1 µM) : what is its relative viability with NCI-H650?
A. 0.112

Q. Can you check Nc1ccn([C@@H]2O[C@H](CO)[C@@H](O)[C@@H]2O)c(=O)n1 [Cytarabine] + COc1cc2c(Oc3ccc(NC(=O)C4(C(=O)Nc5ccc(F)cc5)CC4)cc3F)ccnc2cc1OCCCN1CCOCC1 [Foretinib] (partner 0.25 µM) next?
A. 0.227

Q. Can you check Nc1ccn([C@@H]2O[C@H](CO)[C@@H](O)[C@@H]2O)c(=O)n1 [Cytarabine] + CC(C)C[C@H](NC(=O)[C@H](Cc1ccccc1)NC(=O)c1cnccn1)B(O)O [Bortezomib] (partner 0.002 µM) next?
A. 0.209

Q. Can you check COc1cc2nccc(Oc3ccc(NC(=O)Nc4cc(C)on4)c(Cl)c3)c2cc1OC [Tivozanib] + CC(=O)Nc1cccc(-n2c(=O)n(C3CC3)c(=O)c3c(Nc4ccc(I)cc4F)n(C)c(=O)c(C)c32)c1 [Trametinib] (partner 0.02 µM) next?
A. 0.909

Q. Can you check COc1cc2nccc(Oc3ccc(NC(=O)Nc4cc(C)on4)c(Cl)c3)c2cc1OC [Tivozanib] + Cc1nc(Nc2ncc(C(=O)Nc3c(C)cccc3Cl)s2)cc(N2CCN(CCO)CC2)n1 [Dasatinib] (partner 0.075 µM) next?
A. 0.387

Q. Can you check COc1cc2nccc(Oc3ccc(NC(=O)Nc4cc(C)on4)c(Cl)c3)c2cc1OC [Tivozanib] + CS(=O)(=O)N1CCN(Cc2cc3nc(-c4cccc5[nH]ncc45)nc(N4CCOCC4)c3s2)CC1 [Pictilisib] (partner 1 µM) next?
A. 0.77

Q. Can you check Nc1ccn([C@@H]2O[C@H](CO)[C@@H](O)[C@@H]2O)c(=O)n1 [Cytarabine] + C[C@]1(O)C[C@@H](c2nc(-c3ccc4ccc(-c5ccccc5)nc4c3)c3c(N)nccn32)C1 [Linsitinib] (partner 1 µM) next?
A. 0.234
